Where these numbers come from: the DeepSol protein solubility set

Experiment: soluble on expression in E. coli; label from the status in PepcDB or PDB records
observable: soluble on expression in E. coli

# sequence_content, observable, test_value
data = [
    ("MGSDKIHHHHHHMEAKKSKAIVFSGVNQIELREVTLKPVSSTDVLVETWWSSISTGTEKMALNGLIPSPPFIFPFIPGYETVGRIVEAGDHVNQGLIGKFAYVAGSFGYEDVNAAFGGASQFIVCPVESLTVLDGIANPQCGIALPLGATALHIVDLAEVKNRKVLVLGQGAVGILAAELAKRFGASLVAVTEPHQRRLDISTSDIKVNPEKQDVSVALAGHEFDVLIDSTGIMSAIETGLRFLKFHGKVIFGGYYQRMNIDYSQAFNKELSFIAARQWAKGDLHRVRELIAAGKINAEKIFTHQCTVDDNLMEAYMQAFSDSDCLKMIIHWKHGNEAGEHFPTCNTAN", "soluble on expression in E. coli", "not soluble"),
    ("MLDPARSFDIIGDVHGCALTLERLLDALGYKRVAGVWRHPRRQALFLGDIVDRGPRIREALHIVHDMVEAGQAFCIMGNHEYNALGWVTPALPGSGKAYVREHTPRHARLIDETLTQFAQHPGDWHDFVNWFYQLPLFIDAGRFRLVHALEHHHHHH", "soluble on expression in E. coli", "not soluble"),
    ("MFTIEHLNFAWLQVRAGSKSAGVDGISVDLFESMATEQLQNIAYQLKEETYTANPAKGFYIPKKNGTKRLIGIHTVRDRIIQRLLLDELYFPLEDTFLDCSYAYRPGHSIQQAVQHLYGYYQYQPKWIIKADVADFFDNLSWALLLTYLEELSLEPSLLQLLEQQLKSGIIIAGQYRNFGKGVLQGGILSGALANLYLTSFDRKCLSQGINLVRYGDDFVIACNSWLEANRILDKITGWLGEVYLTLQPEKTQIFTPNDEFTFLGYRFAGGEVYAPPPPEPVRPGEWVINDSGTPYFRLKPKPRKPVSLEHHHHHH", "soluble on expression in E. coli", "not soluble"),
]
